Test system: HIV-1 IIIB infected MT-4 cells
Experiment description: anti-HIV activity test (MTT viable cell count)
Type: cell-based
Test settings: Human immunodeficiency virus 1, MT4, 120 h, MOI 0.01, 5 days, MTT method, read-out: EC50 (concentration at which cellular damage due to HIV infection is inhibited by 50%)
Method: In Test Example 1, the amine compound according to the present invention was subjected to the anti-HIV activity test. […] After culturing the cells at 37° C. for 5 days using a carbon dioxide incubator, the number of viable cells was measured by the MTT (tetrazolium) method ([…] et al., J. Virol. Method, 20, 309-321, 1988).
Property: EC50
Could you write the number and then its unit?

For each listed entry, give its EC50.
1. CCCN(CCC)CCCCN(CCC(=O)O)Cc1ccc(CN(Cc2ncc[nH]2)Cc2nccn2C)cc1
2. CCCN(CCC)CCCCN(CCC(=O)OCC)Cc1ccc(CN(Cc2ncc[nH]2)Cc2nccn2C)cc1

RESULT:
1: 3 nM; 2: 3 nM

QUERY: Query: EC50; subject: CCCN(CCC)CCCCN(CCC(=O)OCCN(C)C)Cc1ccc(CN(Cc2ncc[nH]2)Cc2nccn2C)cc1
RESULT: 3 nM
